Measurement Notes: Plasma and brain concentrations in 6 Hz studies (LC-MS/MS)
Assay type: in vivo, mouse
Settings: mouse, brain, po, 4 mg/kg, Studies 3B+3C combined, Compound A 4 mg/kg PO 1 h alone; read-out: Brain
Measured Attribute: concentration at 1 h (nM)
Write the number in nM without appending the unit.

IN: Specify concentration at 1 h for Cc1cc(N2CCc3cc(F)ccc3C2)cc(C)c1NC(=O)CC(C)(C)C [Compound A] and stop.
OUT: 220

====

Measurement Notes: Plasma and brain concentrations after MES testing (UHPLC-ESI-MS/MS);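 further: brain and plasma were sampled from mice right after the efficacy test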
Settings: CF-1, mouse, in vivo, po, 4 mg/kg, Concentration Brain, Compound A 4 mg/kg PO, 0.5 hr
Measured Attribute: concentration at 0.5 h (ng/g)
Write the number in ng/g without appending the unit.

IN: Specify concentration at 0.5 h for Cc1cc(N2CCc3cc(F)ccc3C2)cc(C)c1NC(=O)CC(C)(C)C [Compound A] and stop.
OUT: 235

====

Measurement Notes: Terminal plasma and brain concentrations in AC-MES studies (UHPLC-MS/MS)
Type: in vivo, mouse
Settings: male, CF-1, mouse, in vivo, po, 5 mg/kg, Study 2B, Compound A 5 mg/kg PO, 0.5 h; read-out: Mean Brain
Measured Attribute: concentration at 0.5 h
# include the unit after the value

IN: Specify concentration at 0.5 h for `Cc1cc(N2CCc3cc(F)ccc3C2)cc(C)c1NC(=O)CC(C)(C)C` and stop.
OUT: 710 nM

====

Measurement Notes: Plasma and brain concentrations in 6 Hz studies (LC-MS/MS)
Assay type: in vivo, mouse
Settings: mouse, plasma, oral, Studies 3B+3C combined, analyte Compound A; 4 mg/kg PO + Levetiracetam 300 mg/kg IP; read-out: Plasma
Measured Attribute: concentration at 1 h (nM)
Write the number in nM without appending the unit.

IN: Specify concentration at 1 h for `Cc1cc(N2CCc3cc(F)ccc3C2)cc(C)c1NC(=O)CC(C)(C)C` and stop.
OUT: 90

====

Measurement Notes: Plasma and brain concentrations in 6 Hz studies (LC-MS/MS)
Format: in vivo, mouse
Settings: mouse, brain, intraperitoneal, 300 mg/kg, Study 3B, Levetiracetam 300 mg/kg IP 1 h alone; read-out: Brain
Measured Attribute: concentration at 1 h

IN: Specify concentration at 1 h for CC[C@@H](C(N)=O)N1CCCC1=O [Levetiracetam, reference compound] and stop.
OUT: 861 µM

====

Measurement Notes: Terminal plasma and brain concentrations in AC-MES studies (UHPLC-MS/MS)
Type: in vivo, mouse
Settings: male, CF-1, mouse, in vivo, po, 3 mg/kg, Study 4C, Compound A 3 mg/kg PO, 0.5 h; read-out: plasma concentration
Measured Attribute: concentration at 0.5 h (nM)
Write the number in nM without appending the unit.

IN: Specify concentration at 0.5 h for Cc1cc(N2CCc3cc(F)ccc3C2)cc(C)c1NC(=O)CC(C)(C)C [Compound A] and stop.
OUT: 280

====

Measurement Notes: Terminal plasma and brain concentrations in AC-MES studies (UHPLC-MS/MS)
Format: in vivo, mouse
Settings: male, CF-1, mouse, in vivo, po, 5 mg/kg, Study 4B; Compound A 5 mg/kg single oral dose; read-out: B/P Ratio (brain to plasma ratio)
Measured Attribute: Kp at 30 min
Format: numeric value only, no unit, no commentary.

IN: Specify Kp at 30 min for `Cc1cc(N2CCc3cc(F)ccc3C2)cc(C)c1NC(=O)CC(C)(C)C` and stop.
OUT: 1.51
